test: AUC(0 to infinity) in single iv dosed BALB/c mouse by HPLC analysis; type: ADME, organism-based; parameters: time infinity, route intravenous; conditions: in vivo
property_name: AUC(0-inf) (ng·h/mL)
One number for each entry, in ng·h/mL.

Record COc1cccc2c1C(=O)c1c(O)c3c(c(O)c1C2=O)C[C@@](O)(C(=O)CO)C[C@@H]3O[C@H]1C[C@H](N)[C@H](O)[C@H](C)O1 . Reported AUC(0-inf): 10400

====

assay: Mean residence time in single iv dosed BALB/c mouse by HPLC analysis; format: ADME, organism-based; settings: in vivo
property_name: MRT (h)
Numbers only, in h.

Record COc1cccc2c1C(=O)c1c(O)c3c(c(O)c1C2=O)C[C@@](O)(C(=O)CO)C[C@@H]3O[C@H]1C[C@H](N)[C@H](O)[C@H](C)O1 . Reported MRT: 3.1
